All values here come from patent US6518243B1.

# Test system: S. aureus (ATCC 29213)
# PROCEDURE TEXT: Zone of inhibition screen, 96 well agar array format
# Format: cell-based
# Set-up: scale not given here
# ASSAY SETUP: zone of inhibition relative to 1 mg/ml p-chlorobiphenylvancomycin
VALUE KIND: zone score, S. aureus ATCC 29213
Give bare numbers.

{"columns": ["COMPOUND", "TARGET UNDER TEST", "zone score, S. aureus ATCC 29213"],
 "data": [
  ["CC(NC(=O)OCc1ccccc1)C(=O)NCC(=O)NCC(=O)NC1C(=O)NC(CC(N)=O)C(=O)NC2C(=O)NC3C(=O)NC(C(=O)NC(C(=O)O)c4cc(O)cc(O)c4-c4cc3ccc4O)C(O)c3ccc(c(Cl)c3)Oc3cc2cc(c3OC2OC(CO)C(O)C(O)C2OC2CC(C)(NCc3ccc(-c4ccc(Cl)cc4)cc3)C(O)C(C)O2)Oc2ccc(cc2Cl)C1O (centres unmarked)", "S. aureus (ATCC 29213)", 2]
]}

Given the entry CC(NC(=O)CNC(=O)CNC(=O)OCc1ccccc1)C(=O)NC1C(=O)NC(CC(N)=O)C(=O)NC2C(=O)NC3C(=O)NC(C(=O)NC(C(=O)O)c4cc(O)cc(O)c4-c4cc3ccc4O)C(O)c3ccc(c(Cl)c3)Oc3cc2cc(c3OC2OC(CO)C(O)C(O)C2OC2CC(C)(NCc3ccc(-c4ccc(Cl)cc4)cc3)C(O)C(C)O2)Oc2ccc(cc2Cl)C1O (centres unmarked) , report its measured zone score, S. aureus ATCC 29213.
2

###

Kindly supply the reported zone score, S. aureus ATCC 29213 values for the records listed here.
# Tested on: S. aureus (ATCC 29213)
# PROCEDURE TEXT: Zone of inhibition screen, 96 well agar array format
# Type: cell-based
# Design: scale not given here
# ASSAY SETUP: zone of inhibition relative to 1 mg/ml p-chlorobiphenylvancomycin

{"columns": ["COMPOUND", "VALUE KIND", "MEASURED"],
 "data": [
  ["CCC(O)C(=O)NC1C(=O)NC(CC(N)=O)C(=O)NC2C(=O)NC3C(=O)NC(C(=O)NC(C(=O)O)c4cc(O)cc(O)c4-c4cc3ccc4O)C(O)c3ccc(c(Cl)c3)Oc3cc2cc(c3OC2OC(CO)C(O)C(O)C2OC2CC(C)(NCc3ccc(-c4ccc(Cl)cc4)cc3)C(O)C(C)O2)Oc2ccc(cc2Cl)C1O (mixture of isomers)", "zone score, S. aureus ATCC 29213", 2]
]}

Turning now to a further record.
zone score, S. aureus ATCC 29213 of CC1OC(OC2C(Oc3c4cc5cc3Oc3ccc(cc3Cl)C(O)C3NC(=O)C(NC(=O)C5NC(=O)C(CC(N)=O)NC(=O)C(NC(=O)CNC(=O)CNC(=O)OC(C)(C)C)C(O)c5ccc(c(Cl)c5)O4)c4ccc(O)c(c4)-c4c(O)cc(O)cc4C(C(=O)O)NC3=O)OC(CO)C(O)C2O)CC(C)(NCc2ccc(-c3ccc(Cl)cc3)cc2)C1O (centres unmarked) on S. aureus (ATCC 29213)?
2

###

# Test system: S. epidermidis (ATCC 12228)
# PROCEDURE TEXT: Zone of inhibition screen, 96 well agar array format
# Type: cell-based
# Design: scale not given here
# ASSAY SETUP: zone of inhibition relative to 1 mg/ml p-chlorobiphenylvancomycin
VALUE KIND: zone score, S. epidermidis ATCC 12228
Answers are plain numbers.

{"columns": ["COMPOUND", "zone score, S. epidermidis ATCC 12228"],
 "data": [
  ["COC(=O)CCCC(=O)NC1C(=O)NC(CC(N)=O)C(=O)NC2C(=O)NC3C(=O)NC(C(=O)NC(C(=O)O)c4cc(O)cc(O)c4-c4cc3ccc4O)C(O)c3ccc(c(Cl)c3)Oc3cc2cc(c3OC2OC(CO)C(O)C(O)C2OC2CC(C)(NCc3ccc(-c4ccc(Cl)cc4)cc3)C(O)C(C)O2)Oc2ccc(cc2Cl)C1O (centres unmarked)", 2]
]}

Item: CC1OC(OC2C(Oc3c4cc5cc3Oc3ccc(cc3Cl)C(O)C3NC(=O)C(NC(=O)C5NC(=O)C(CC(N)=O)NC(=O)C(NC(=O)C5CCCO5)C(O)c5ccc(c(Cl)c5)O4)c4ccc(O)c(c4)-c4c(O)cc(O)cc4C(C(=O)O)NC3=O)OC(CO)C(O)C2O)CC(C)(NCc2ccc(-c3ccc(Cl)cc3)cc2)C1O (centres unmarked) Test system: S. epidermidis (ATCC 12228) Read-out: zone score, S. epidermidis ATCC 12228 Value: ?
2

###

# Test system: S. aureus (ATCC 29213)
# PROCEDURE TEXT: Zone of inhibition screen, 96 well agar array format
# Format: cell-based
# Set-up: scale not given here
# ASSAY SETUP: zone of inhibition relative to 1 mg/ml p-chlorobiphenylvancomycin
VALUE KIND: zone score, S. aureus ATCC 29213

{"columns": ["MOLECULE", "TARGET UNDER TEST", "VALUE KIND", "MEASURED"],
 "data": [
  ["CC1OC(OC2C(Oc3c4cc5cc3Oc3ccc(cc3Cl)C(O)C3NC(=O)C(NC(=O)C5NC(=O)C(CC(N)=O)NC(=O)C(NC(=O)CCNC(N)=O)C(O)c5ccc(c(Cl)c5)O4)c4ccc(O)c(c4)-c4c(O)cc(O)cc4C(C(=O)O)NC3=O)OC(CO)C(O)C2O)CC(C)(NCc2ccc(-c3ccc(Cl)cc3)cc2)C1O (stereo not drawn) [Compound 221]", "S. aureus (ATCC 29213)", "zone score, S. aureus ATCC 29213", 2],
  ["CC1OC(OC2C(Oc3c4cc5cc3Oc3ccc(cc3Cl)C(O)C3NC(=O)C(NC(=O)C5NC(=O)C(CC(N)=O)NC(=O)C(NC(=O)C=Cc5c[nH]cn5)C(O)c5ccc(c(Cl)c5)O4)c4ccc(O)c(c4)-c4c(O)cc(O)cc4C(C(=O)O)NC3=O)OC(CO)C(O)C2O)CC(C)(NCc2ccc(-c3ccc(Cl)cc3)cc2)C1O (stereo not drawn) [Compound 321]", "S. aureus (ATCC 29213)", "zone score, S. aureus ATCC 29213", 2],
  ["CC1OC(OC2C(Oc3c4cc5cc3Oc3ccc(cc3Cl)C(O)C3NC(=O)C(NC(=O)C5NC(=O)C(CC(N)=O)NC(=O)C(NC(=O)c5cccc(O)c5)C(O)c5ccc(c(Cl)c5)O4)c4ccc(O)c(c4)-c4c(O)cc(O)cc4C(C(=O)O)NC3=O)OC(CO)C(O)C2O)CC(C)(NCc2ccc(-c3ccc(Cl)cc3)cc2)C1O (stereo not drawn) [Compound 261]", "S. aureus (ATCC 29213)", "zone score, S. aureus ATCC 29213", 2],
  ["CC1OC(OC2C(Oc3c4cc5cc3Oc3ccc(cc3Cl)C(O)C3NC(=O)C(NC(=O)C5NC(=O)C(CC(N)=O)NC(=O)C(NC(=O)c5ccc(N)cc5O)C(O)c5ccc(c(Cl)c5)O4)c4ccc(O)c(c4)-c4c(O)cc(O)cc4C(C(=O)O)NC3=O)OC(CO)C(O)C2O)CC(C)(NCc2ccc(-c3ccc(Cl)cc3)cc2)C1O (stereo not drawn) [Compound 274]", "S. aureus (ATCC 29213)", "zone score, S. aureus ATCC 29213", 2],
  ["C[C@H]1O[C@H](O[C@H]2[C@H](Oc3c4cc5cc3Oc3ccc(cc3Cl)[C@@H](O)[C@@H](NC(=O)c3cccc(N)c3)C(=O)N[C@@H](CC(N)=O)C(=O)N[C@H]5C(=O)N[C@H]3C(=O)N[C@H](C(=O)N[C@@H](C(=O)O)c5cc(O)cc(O)c5-c5cc3ccc5O)[C@H](O)c3ccc(c(Cl)c3)O4)O[C@H](CO)[C@@H](O)[C@@H]2O)C[C@@](C)(NCc2ccc(-c3ccc(Cl)cc3)cc2)[C@H]1O [Compound 257]", "S. aureus (ATCC 29213)", "zone score, S. aureus ATCC 29213", 2]
]}

Provide zone score, S. aureus ATCC 29213 values for the following items, in order.
1. CC(=O)C(=O)NC1C(=O)NC(CC(N)=O)C(=O)NC2C(=O)NC3C(=O)NC(C(=O)NC(C(=O)O)c4cc(O)cc(O)c4-c4cc3ccc4O)C(O)c3ccc(c(Cl)c3)Oc3cc2cc(c3OC2OC(CO)C(O)C(O)C2OC2CC(C)(NCc3ccc(-c4ccc(Cl)cc4)cc3)C(O)C(C)O2)Oc2ccc(cc2Cl)C1O (stereo not drawn) [Compound 314]
2. CC(=O)Nc1ccc(C(=O)NC2C(=O)NC(CC(N)=O)C(=O)NC3C(=O)NC4C(=O)NC(C(=O)NC(C(=O)O)c5cc(O)cc(O)c5-c5cc4ccc5O)C(O)c4ccc(c(Cl)c4)Oc4cc3cc(c4OC3OC(CO)C(O)C(O)C3OC3CC(C)(NCc4ccc(-c5ccc(Cl)cc5)cc4)C(O)C(C)O3)Oc3ccc(cc3Cl)C2O)cc1 (stereo not drawn) [Compound 265]
3. CC(=O)Oc1ccc(C(=O)NC2C(=O)NC(CC(N)=O)C(=O)NC3C(=O)NC4C(=O)NC(C(=O)NC(C(=O)O)c5cc(O)cc(O)c5-c5cc4ccc5O)C(O)c4ccc(c(Cl)c4)Oc4cc3cc(c4OC3OC(CO)C(O)C(O)C3OC3CC(C)(NCc4ccc(-c5ccc(Cl)cc5)cc4)C(O)C(C)O3)Oc3ccc(cc3Cl)C2O)cc1 (stereo not drawn) [Compound 266]
4. C[C@H]1O[C@H](O[C@H]2[C@H](Oc3c4cc5cc3Oc3ccc(cc3Cl)[C@@H](O)[C@@H](NC(=O)c3nc(N)n[nH]3)C(=O)N[C@@H](CC(N)=O)C(=O)N[C@H]5C(=O)N[C@H]3C(=O)N[C@H](C(=O)N[C@@H](C(=O)O)c5cc(O)cc(O)c5-c5cc3ccc5O)[C@H](O)c3ccc(c(Cl)c3)O4)O[C@H](CO)[C@@H](O)[C@@H]2O)C[C@@](C)(NCc2ccc(-c3ccc(Cl)cc3)cc2)[C@H]1O [Compound 256]
5. CC1OC(OC2C(Oc3c4cc5cc3Oc3ccc(cc3Cl)C(O)C3NC(=O)C(NC(=O)C5NC(=O)C(CC(N)=O)NC(=O)C(NC(=O)C5CCC(=O)O5)C(O)c5ccc(c(Cl)c5)O4)c4ccc(O)c(c4)-c4c(O)cc(O)cc4C(C(=O)O)NC3=O)OC(CO)C(O)C2O)CC(C)(NCc2ccc(-c3ccc(Cl)cc3)cc2)C1O (stereo not drawn) [Compound 227]
6. CC1OC(OC2C(Oc3c4cc5cc3Oc3ccc(cc3Cl)C(O)C3NC(=O)C(NC(=O)C5NC(=O)C(CC(N)=O)NC(=O)C(NC(=O)c5cccc[n+]5[O-])C(O)c5ccc(c(Cl)c5)O4)c4ccc(O)c(c4)-c4c(O)cc(O)cc4C(C(=O)O)NC3=O)OC(CO)C(O)C2O)CC(C)(NCc2ccc(-c3ccc(Cl)cc3)cc2)C1O (stereo not drawn) [Compound 313]
7. Cc1oncc1C(=O)NC1C(=O)NC(CC(N)=O)C(=O)NC2C(=O)NC3C(=O)NC(C(=O)NC(C(=O)O)c4cc(O)cc(O)c4-c4cc3ccc4O)C(O)c3ccc(c(Cl)c3)Oc3cc2cc(c3OC2OC(CO)C(O)C(O)C2OC2CC(C)(NCc3ccc(-c4ccc(Cl)cc4)cc3)C(O)C(C)O2)Oc2ccc(cc2Cl)C1O (stereo not drawn) [Compound 275]

[2, 2, 2, 2, 2, 2, 2]
